# test description: recombinant barcode read abundance after kanamycin selection (control-corrected) (log10(CPM+1)); higher = more efficient recombination; sequences stand for … in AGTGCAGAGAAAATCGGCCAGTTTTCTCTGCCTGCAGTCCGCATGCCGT…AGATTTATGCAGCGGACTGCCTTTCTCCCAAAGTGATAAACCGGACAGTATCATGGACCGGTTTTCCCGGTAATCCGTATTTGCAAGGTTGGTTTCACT; site = the 11-nt target;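 note: IS621 recombinase and bridge RNA in Escherichia coli cells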
// Condition not met strictly below 0.9 in recombinant barcode read abundance (log10); Condition met otherwise

• AGGAGTCCTTGGGTTCTAACCTGTTGCAG (site AGGAGTCCTCT) = Condition met
• GCCCGTGCTTGGGTTCTAACCTGTTGCCT (site GCCCGTGCTAG) = Condition met
• CCTTGTGCTTGGGTTCTAACCTGTTGCGT (site CCTTGTGCTAC) = Condition not met
• CTCCGAACTTGGGTTCTAACCTGTTGCTT (site CTCCGAACTAA) = Condition not met
• TCCAGTACTTGGGTTCTAACCTGTTGCAT (site TCCTGTACTAT) = Condition not met
• AGTCCCGCTTGGGTTCTAACCTGTTGCCA (site AGTCCCGCTTG) = Condition met
• TCCAACCCTTGGGTTCTAACCTGTTGCTG (site TCCAACCCTCA) = Condition met
• CTAACCTCTTGGGTTCTAACCTGTTGCTT (site CTAACCTCTAA) = Condition not met
• CCGCGCTCTTGGGTTCTAACCTGTTGCCT (site CCGCGCACTAG) = Condition not met
